Consider the following variants; for each one, report its self-cleavage.
B1: CPEB3 Ribozyme (parent)
chain: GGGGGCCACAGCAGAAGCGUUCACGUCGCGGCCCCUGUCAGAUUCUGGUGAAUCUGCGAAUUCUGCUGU

Variants of: B1
Experiment: self-cleavage, relative activity (ratio to wild type); higher = more cleavage; co-transcriptional
When you answer, write just the number.

Value of measured self-cleavage for the entry C33G C39G : 0.513

Value of measured self-cleavage for the entry C6A A23G : 0.511

Value of measured self-cleavage for the entry C6A U49G : 0.5

Value of measured self-cleavage for the entry G56C G65U : 0.512
